Each recorded value in this set is attributed to patent US9085568B2.

# system under test: full-length human Mineralocorticoid Receptor (MR) (Homo sapiens, UniProt P08235)
# Sequence (P08235 1-984): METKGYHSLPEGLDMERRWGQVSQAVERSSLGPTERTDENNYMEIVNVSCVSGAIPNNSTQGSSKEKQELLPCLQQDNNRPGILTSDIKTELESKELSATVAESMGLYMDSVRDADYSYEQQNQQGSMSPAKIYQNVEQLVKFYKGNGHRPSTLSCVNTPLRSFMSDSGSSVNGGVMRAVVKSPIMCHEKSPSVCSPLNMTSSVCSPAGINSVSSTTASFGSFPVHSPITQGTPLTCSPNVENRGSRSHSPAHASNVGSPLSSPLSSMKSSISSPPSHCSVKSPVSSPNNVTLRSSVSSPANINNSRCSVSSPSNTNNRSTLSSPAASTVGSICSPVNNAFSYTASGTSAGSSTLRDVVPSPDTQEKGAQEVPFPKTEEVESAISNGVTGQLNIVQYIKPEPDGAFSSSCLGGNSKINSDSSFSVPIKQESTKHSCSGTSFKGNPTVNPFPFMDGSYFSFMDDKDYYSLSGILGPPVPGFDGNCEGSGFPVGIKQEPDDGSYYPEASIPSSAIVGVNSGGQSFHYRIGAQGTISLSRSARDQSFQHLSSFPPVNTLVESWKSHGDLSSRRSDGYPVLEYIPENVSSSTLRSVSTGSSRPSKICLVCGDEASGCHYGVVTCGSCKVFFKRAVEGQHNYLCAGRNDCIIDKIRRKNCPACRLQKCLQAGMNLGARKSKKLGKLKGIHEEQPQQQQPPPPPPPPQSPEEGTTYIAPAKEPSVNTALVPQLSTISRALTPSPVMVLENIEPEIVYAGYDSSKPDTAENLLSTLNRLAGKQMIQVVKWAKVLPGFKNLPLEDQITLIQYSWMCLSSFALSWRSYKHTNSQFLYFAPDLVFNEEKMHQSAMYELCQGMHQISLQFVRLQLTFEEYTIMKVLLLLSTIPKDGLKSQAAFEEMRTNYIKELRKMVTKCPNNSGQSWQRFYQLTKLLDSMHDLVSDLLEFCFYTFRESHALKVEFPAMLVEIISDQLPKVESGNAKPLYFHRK
# assay explanation: human MR NH Pro assay (PathHunter protein:protein interaction, MR antagonism)
# measurement parameters: PathHunter CHO-K1 cells overexpressing human MR; aldosterone (0.3 nM), 6 hours at 37° C.; antagonism of MR binding to coactivator peptide; read-out: IC50 Rating
pIC50: −log10 of the molar value.
property measured: pIC50

Solved cases below.
COc1cc(OC)cc(-c2nnc([C@@]3(Cc4ccccc4)NC(=O)N([C@H](C)c4ccccc4)C3=O)o2)c1 (single isomer, unassigned)	5.70 to 6.30
C[C@H](c1ccccc1)N1C(=O)O[C@](Cc2ccccc2)(c2nnc(C3(C(F)(F)F)CC3)o2)C1=O	5.70 to 6.30
C[C@H](c1ccccc1)N1C(=O)O[C@](Cc2ccccc2)(c2nnc(C3(c4ccncc4)CC3)o2)C1=O	6.30 to 7.00
COc1cc(Cc2nnc([C@@]3(Cc4ccccc4)OC(=O)N([C@H](C)c4ccccc4)C3=O)o2)cc(OC)c1	> 7.00
COc1cc(N)cc(-c2nnc([C@@]3(Cc4ccccc4)OC(=O)N([C@H](C)c4ccccc4)C3=O)o2)c1	6.30 to 7.00

Print full-length human Mineralocorticoid Receptor (MR) (Homo sapiens, UniProt P08235) pIC50 for C[C@H](c1ccccc1)N1C(=O)O[C@](Cc2ccccc2)(c2nnc(CC(F)(F)F)o2)C1=O .
5.70 to 6.30

Print full-length human Mineralocorticoid Receptor (MR) (Homo sapiens, UniProt P08235) pIC50 for C[C@H](c1ccccc1)N1C(=O)O[C@](Cc2ccccc2)(c2nnc(C3(c4cc(F)cc(F)c4)CC3)o2)C1=O .
6.30 to 7.00

Print full-length human Mineralocorticoid Receptor (MR) (Homo sapiens, UniProt P08235) pIC50 for COc1cc(OC)cc(-c2n[nH]c(C3(Cc4ccccc4)OC(=O)N([C@H](C)c4ccc(F)cc4)C3=O)n2)c1 (some centres unmarked) .
5.70 to 6.30
